Test system: HeLa MZ
Test: whole-cell filipin (free cholesterol) integrated intensity, Z-score; higher = more cholesterol staining
Settings: compound concentration in added solution (µM; 5 µl added to 20 µl cells): 10; 18 h
Counter-ions that a name gives are not always drawn.
Hi, to clarify the labels: rule met covers whole-cell filipin (z-score) from -0.07 upward, rule not met covers anything below -0.07.

CC1CS(=O)(=O)CCN1/N=C/c1ccc([N+](=O)[O-])o1 (stereo unspecified) :: rule not met
CC(=O)CCCCn1c(=O)c2c(ncn2C)n(C)c1=O :: rule not met
CC(C)NCC(O)c1ccc2ccccc2c1 (stereo unspecified) [Pronethalol hydrochloride] :: rule met
CC(=O)S[C@@H]1CC2=CC(=O)CC[C@]2(C)[C@H]2CC[C@@]3(C)[C@@H](CC[C@@]34CCC(=O)O4)[C@H]12 :: rule not met
Nc1ccc(C(=O)NCC(=O)O)cc1 :: rule not met

q: Would you say CCN1CCC[C@H]1CNC(=O)c1c(OC)ccc(Br)c1OC [Remoxipride Hydrochloride] shows whole-cell filipin (z-score) at minimum -0.07?
a: rule not met

q: Is it the case that O=C(O)c1cc(=O)c2c(OCC(O)COc3cccc4oc(C(=O)O)cc(=O)c34)cccc2o1 [Cromolyn disodium salt] has whole-cell filipin (z-score) reaching or exceeding -0.07?
a: rule not met

q: Given Nc1nc(O)c2ncn(CCC(CO)CO)c2n1 , state whether its whole-cell filipin (z-score) is at least -0.07.
a: rule met

q: Is whole-cell filipin (z-score) for CC(C)NC[C@@H](O)COc1cccc2ccccc12 [(R)-Propranolol hydrochloride] at or above -0.07?
a: rule not met

q: Could you verify whether the entry COc1ccccc1N1CCN(CCCNc2cc(=O)n(C)c(=O)n2C)CC1 [Urapidil hydrochloride] shows whole-cell filipin (z-score) of no less than -0.07?
a: rule met

The reported numbers originate from the supplement of paper PMC6607015.
